# Test system: Escherichia coli TOP10
# method: shrunken log2 fold change of peptide-encoding DNA abundance (4.5 h post-induction vs induction); higher = less antimicrobial activity (less host growth inhibition)
# measurement setup: time post-induction: 4.5 h; library: site-saturation at positions 5, 18, 19, 20
Assign class by shrunken log2 fold change: not lower than 0.2 means 1.0; lower than 0.2 means 0.0.

Input: Can RRIRCRPPRLPRPRPRPAPNPRP be said to have shrunken log2 fold change at or above 0.2?
Output: 1.0

Input: Identify whether the reported shrunken log2 fold change of the following sequence is 0.2 or greater: RRIRGRPPRLPRPRPRPFSKPRP
Output: 0.0

Input: Can RRIRQRPPRLPRPRPRPACAPRP be said to have shrunken log2 fold change at or above 0.2?
Output: 1.0

New cases:
Input: Does the sequence RRIRHRPPRLPRPRPRPLIRPRP have recorded shrunken log2 fold change that is 0.2 or more?
Output: 0.0

Input: Does RRIRGRPPRLPRPRPRPDIEPRP have a reported shrunken log2 fold change of at least 0.2?
Output: 1.0

Input: hey, is shrunken log2 fold change for this one >= 0.2? RRIRRRPPRLPRPRPRPFLTPRP
Output: 1.0

Input: For this sequence, is measured shrunken log2 fold change 0.2 or higher? RRIRFRPPRLPRPRPRPIPNPRP
Output: 0.0

Input: For this sequence, is measured shrunken log2 fold change 0.2 or higher? RRIRQRPPRLPRPRPRPYHWPRP
Output: 0.0

---

# Tested on: Escherichia coli TOP10;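 further: peptides expressed intracellularly from a pBAD plasmid library in pooled LB shake-flask culture, induced with 0.3% L-arabinose, DNA abundance read by NGS, three biological replicates, DESeq2 with apeglm shrinkage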
# method: shrunken log2 fold change of peptide-encoding DNA abundance (4.5 h post-induction vs induction); higher = less antimicrobial activity (less host growth inhibition)
# measurement setup: time post-induction: 4.5 h; library: site-saturation at positions 5, 18, 19, 20
Entry flag: Fulfilled if shrunken log2 fold change reaches -0.05; Not fulfilled if it does not.

Input: Would you say RRIRCRPPRLPRPRPRPQDWPRP shows shrunken log2 fold change at minimum -0.05?
Output: Not fulfilled

Input: Is shrunken log2 fold change for RRIRPRPPRLPRPRPRPSDRPRP at or above -0.05?
Output: Fulfilled

Input: Does the sequence RRIRPRPPRLPRPRPRPLKLPRP have recorded shrunken log2 fold change that is -0.05 or more?
Output: Not fulfilled

Input: Would you say RRIRARPPRLPRPRPRPMTVPRP shows shrunken log2 fold change at minimum -0.05?
Output: Not fulfilled

Input: Item RRIRGRPPRLPRPRPRPCFGPRP with shrunken log2 fold change of -0.05 or above?
Output: Fulfilled

Input: hey, is shrunken log2 fold change for this one >= -0.05? RRIRARPPRLPRPRPRPFTMPRP
Output: Not fulfilled

Input: Test whether the sequence RRIRIRPPRLPRPRPRPAKCPRP records shrunken log2 fold change of -0.05 or higher.
Output: Not fulfilled

Input: Threshold query (shrunken log2 fold change >= -0.05) on RRIRHRPPRLPRPRPRPQHVPRP
Output: Fulfilled

Next:
Input: Please indicate if the recorded shrunken log2 fold change for RRIRDRPPRLPRPRPRPLDPPRP meets or exceeds -0.05.
Output: Fulfilled

Input: Evaluate RRIRLRPPRLPRPRPRPVKQPRP : shrunken log2 fold change at minimum -0.05?
Output: Fulfilled

Input: Does the reported shrunken log2 fold change for RRIRCRPPRLPRPRPRPWNPPRP fall at or above the -0.05 mark?
Output: Fulfilled
